What cell viability was measured for each of the following?
System: DLD1
Experiment: cell viability (CellTiter-Glo) relative to plate median (fraction of plate median); higher = more viable cells
Conditions: 5 µM; treatment time 24 h; reporter: 7TFP
One number for each entry.

compound	cell viability
N[C@@H](Cc1ccc(N(CCCl)CCCl)cc1)C(=O)O	1.01
NCC1(CC(=O)O)CCCCC1	1
COc1ccc(CCN2CCC(Nc3nc4ccccc4n3Cc3ccc(F)cc3)CC2)cc1	0.977
COc1cc(O)c2c(=O)oc3cc(O)cc(C)c3c2c1	0.979

List cell viability for every entry below, keeping the order given.
1. O=[N+]([O-])O[C@@H]1CO[C@H]2[C@@H]1OC[C@@H]2O
2. COc1cc2occc2c2oc(=O)ccc12
3. O=C(O)CCCc1ccc(N(CCCl)CCCl)cc1
4. C=C[C@H]1CN2CC[C@H]1C[C@H]2[C@H](O)c1ccnc2ccccc12
5. CC(=O)O[C@H]1C[C@@H](OC(C)=O)C(C)(C)C2C[C@@H](OC(C)=O)[C@]3(C)C(CC[C@@]4(C)[C@H](c5ccoc5)C(=O)[C@H]5O[C@]543)[C@]21C (stereo not given in full)

Ans.
[0.98, 0.986, 1.02, 1.03, 0.99]

Qu. Which cell viability value belongs to C[C@]12CC[C@H]3[C@@H](CC[C@]4(O)C[C@@H](O)CC[C@]34C=O)[C@@]1(O)CC[C@@H]2C1=CC(=O)OC1 ?
Ans. 0.579

###

Provide the recorded cell viability for the entries that follow.
System: HCT116
Test: cell viability (CellTiter-Glo) relative to plate median (fraction of plate median); higher = more viable cells
Details: 10 µM; treatment time 24 h; reporter: TCF4/Wnt
One number for each entry.

> print(dat)
                                   molecule  reported
1  Cc1ccccc1-n1c(Cn2cnc3c(N)ncnc32)nc2cccc(C)c2c1=O      1.19
2  CCN1CCN(C(=O)Cc2ccc(Nc3ncc(F)c(Nc4ccc(C(=O)Nc5ccccc5Cl)cc4)n3)cc2)CC1 [Aurora A Inhibitor I]      1.09
3  Cc1ccccc1-n1c(Cn2ncc3c(N)ncnc32)nc2cccc(C)c2c1=O      1.22

Consider the additional molecule presented here.
Qu. Could you tell me which cell viability is on file for CN[C@@H]1C[C@H]2O[C@@](C)([C@@H]1OC)n1c3ccccc3c3c4c(c5c6ccccc6n2c5c31)C(=O)NC4 [Staurosporine] ?
Ans. 0.23

###

Test system: SW480
Test: cell viability (CellTiter-Glo) relative to plate median (fraction of plate median); higher = more viable cells
Conditions: 5 µM; treatment time 24 h; reporter: 7TFP
Mark Y only for cell viability values smaller than 1; exact matches and larger values are N.

Past entries and their recorded results:
> print(dat)
                               given.smiles  classification
1  CC[C@H]1CN2CCc3cc(OC)c(OC)cc3[C@@H]2C[C@@H]1C[C@H]1NCCc2cc(OC)c(OC)cc21               Y
2  C=C(C)[C@H]1Cc2c(ccc3c(=O)c4c(oc23)COc2cc(OC)c(OC)cc2-4)O1               N

Query molecule follows.
Qu. Below 1 on cell viability? Entry Cl[C@H]1[C@H](Cl)[C@@H](Cl)[C@@H](Cl)[C@H](Cl)[C@H]1Cl
Ans. N

###

Test system: DLD1
Assay: cell viability (CellTiter-Glo) relative to plate median (fraction of plate median); higher = more viable cells
Settings: 5 µM; treatment time 24 h; reporter: 7TFP
Assignment: determine reported cell viability for the given compounds.
Answers are plain numbers.

Solved entries (count: 2):
> print(dat)
                                   compound  reported
1  C[N+]1(C)[C@@H]2C[C@@H](OC(=O)[C@H](CO)c3ccccc3)C[C@H]1[C@@H]1O[C@@H]12      1.09
2                 C=CCc1cc(OC)c2c(c1OC)OCO2     0.962

Hey, quick one: what's cell viability for each of these?
1. NC(=O)Cc1ccccc1 [Phenylacetamide]
2. COc1ccc2[nH]cc(CCN)c2c1
3. NC(=O)c1ccc(N)nc1
4. c1cc2c(cc1[C@H]1OC[C@H]3[C@@H]1CO[C@H]3c1ccc3c(c1)OCO3)OCO2

Ans.
1. 1.11
2. 1.09
3. 1.1
4. 1.03

###

I'd be grateful if you could share measured cell viability for these entries.
Tested on: HCT116
Assay: cell viability (CellTiter-Glo) relative to plate median (fraction of plate median); higher = more viable cells
Settings: 5 µM; treatment time 24 h; reporter: TCF4/Wnt
One number for each entry.

Worked set:
compound	cell viability
CC[C@@H](C)C(=O)O[C@H]1[C@H](O)[C@H]2[C@@H](CN3C[C@@H](C)CC[C@H]3[C@@]2(C)O)[C@@H]2C[C@]34O[C@]5(O)[C@@H](OC(=O)[C@](C)(O)[C@@H](C)O)CC[C@@]3(C)[C@@H]5[C@@H](OC(C)=O)[C@@H](OC(C)=O)[C@H]4[C@@]21O (stereo in doubt)	1.17
C=C[C@@H]1C2=CCOC(=O)C2=CO[C@H]1O[C@@H]1O[C@H](CO)[C@@H](O)[C@H](O)[C@H]1O	0.95
O=C(O)CC[N+](=O)[O-]	1.05

Below are 6 compounds. Give each one its cell viability.
1. C[C@@H]1C(=O)O[C@H]2[C@H]1CC[C@@]1(C)C=CC(=O)[C@@]3(C)O[C@@]213 [EPOXY (4,5alpha)-4,5-DIHYDROSANTONIN]
2. COc1ccc2c(c1OC)C(=O)O[C@H]2[C@H]1c2cc3c(cc2CCN1C)OCO3
3. O=C(O)CCC1NCC2CC1CN1CCCCC21 (configuration not stated)
4. Nc1ncn[nH]1
5. O=c1cccc2n1C[C@@H]1CNC[C@H]2C1
6. CC1=C(O)C(=O)C=C2C1=CC=C1[C@@]2(C)CC[C@@]2(C)[C@@H]3C[C@](C)(C(=O)O)CC[C@]3(C)CC[C@]12C

Ans.
1.17
1.04
1.08
1.09
0.981
0.837

Batch request: cell viability for each of the following compounds.
1. CCC(=O)O[C@H]1CC[C@H]2[C@@H]3CCC4=CC(=O)CC[C@]4(C)[C@H]3CC[C@]12C
2. COc1ccc(C(=O)N2CCCC2=O)cc1
3. CCCC(C)C1(CC)C(=O)NC(=S)NC1=O (configuration not stated)
4. C/C=C/[C@H]1O[C@@](O)([C@@H](C)[C@H](O)[C@H](C)[C@H]2OC(=O)/C(OC)=C/C(C)=C/[C@@H](C)[C@@H](O)[C@@H](CC)[C@@H](O)[C@H](C)C/C(C)=C/C=C/[C@@H]2OC)C[C@@H](O[C@H]2C[C@@H](O)[C@H](OC(N)=O)[C@@H](C)O2)[C@@H]1C
5. COc1ccc2c3c([nH]c2c1)C(C)=NCC3
6. COc1cc2c(c(OC)c1OC)-c1ccc(OC)c(=O)cc1[C@@H](NC(C)=O)CC2

Ans.
1. 0.894
2. 0.957
3. 1.03
4. 0.998
5. 0.971
6. 0.636

Return reported cell viability values for all items listed beneath this line.
1. O=C(NC(=O)c1c(F)cccc1F)Nc1ccc(Cl)cc1
2. C=C(C)[C@H]1Cc2c(ccc3c(=O)c4c(oc23)COc2cc(OC)c(OC)cc2-4)O1
3. C=CCC1(C(C)CCC)C(=O)NC(=S)NC1=O (configuration not stated)
4. CNC(=O)Oc1ccccc1OC(C)C
5. Nc1ccccc1C(=O)O
6. C[C@H]1C(=O)O[C@@H]2CCN3CC=C(COC(=O)[C@](C)(O)[C@]1(C)O)[C@H]23
7. NCCc1ccc(O)cc1

Ans.
1: 0.939; 2: 1; 3: 1.18; 4: 0.983; 5: 1; 6: 1.04; 7: 0.93

Would you mind giving cell viability for every compound in the list below?
1. CCNc1nc(Cl)nc(NCC)n1
2. NC(=O)Cc1ccccc1 [Phenylacetamide]
3. O=[N+]([O-])c1cc([As](=O)(O)O)ccc1O
4. O=C1CCC[C@@H]2[C@H]3C[C@@H](CN12)[C@@H]1CCCCN1C3.[O-][Cl+3]([O-])([O-])O
5. N[C@@H]1C[C@H]1c1ccccc1.N[C@H]1C[C@@H]1c1ccccc1
6. COc1ccc2c(c1)[C@]13CCCC[C@@H]1[C@H](C2)N(C)CC3
7. N.N.[Cl][Pt][Cl]
8. CC[C@@H](CO)NC(=O)[C@@H]1C=C2c3cccc4[nH]cc(c34)C[C@H]2N(C)C1

Ans.
[1.06, 1, 1.07, 0.956, 0.959, 0.992, 1.07, 1.02]

Provide cell viability values for the following items, in order.
1. C=C[C@H]1CN2CC[C@H]1C[C@@H]2[C@@H](O)c1ccnc2ccccc12
2. CN1CCCCC1c1ccc(-c2cccnc2)nc1 (configuration not stated)
3. COc1cc([C@@H]2c3cc4c(cc3[C@@H](O)[C@H]3COC(=O)[C@H]23)OCO4)cc(OC)c1O
4. CN(C)C(=O)Oc1cccc([N+](C)(C)C)c1
5. COc1cc(O)c2c(=O)oc3cc(O)cc(C)c3c2c1
6. Cc1ccc(/N=C/N(C)/C=N/c2ccc(C)cc2C)c(C)c1
7. C[C@H]1O[C@@H](O[C@H]2[C@@H](O)C[C@H](O[C@H]3[C@@H](O)C[C@H](O[C@H]4CC[C@@]5(C)[C@H](CC[C@@H]6[C@@H]5CC[C@]5(C)[C@@H](C7=CC(=O)OC7)[C@@H](O)C[C@]65O)C4)O[C@@H]3C)O[C@@H]2C)C[C@H](O)[C@@H]1O

Ans.
1. 0.963
2. 0.901
3. 0.613
4. 0.979
5. 1.03
6. 0.988
7. 0.649
